assay.target: LHD206A
protocol.description: BLI; biotinylated protomer on streptavidin biosensors, designed partner in solution; 25 °C; 10 mM HEPES pH 7.4, 150 mM NaCl, 3 mM EDTA, 0.05% Surfactant P20, 1 mg/ml BSA; steady-state fit, 1:1 model

{"binder": "LHD206B (designed binder, modifications not checked) GRQEKVLKSIEETVRKMGVTMETHRSGNEVKVVIKGLHKSQQEQLLKDVLKTANKQGVNVHISFRGDTVTIRVRE", "unit.annotation": "nM", "Kd": 8.4}
